Exercise: state measured pKd for each of the binders provided.
target: T1, recombinant human PDGF-BB (human, UniProt P01127 82-190, biotin-labelled in the binding and competition ELISAs (sites not given)); test: Biacore SPR, antibody captured by anti-human Fc, PDGF-BB injected
T1 construct: Bought protein (CST cat#8912BF) in the ELISAs and cell assays; purified recombinant PDGF-BB in Biacore; also called huPDGF-BB; hPDGF-BB
T1 sequence (P01127 82-190 limits assumed): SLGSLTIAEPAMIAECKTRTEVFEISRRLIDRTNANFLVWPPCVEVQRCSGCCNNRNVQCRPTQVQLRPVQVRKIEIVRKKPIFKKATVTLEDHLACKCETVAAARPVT
pKd: −log10 of the molar value.

Answered examples (3):
>>> assay_value("chBFU-11A8-D6-C3 (antibody, human IgG1, V domains shown) VH: EVQLQQSGPELQRPGASVKLSCKASGYTFTESYIYWVKQRPEQSLELIGRIDPEDGSTDYVEKFKNKATLTADTSSNTAYMQLSSLTSEDTATYFCARFGARSYFYPMDAWGQGTSVTVSS VL: DTVLTQSPTLAVSPGERVSIPCRASESVSTLMHWYQQKPGQQPRLLIYGASNLESGVPARFSGSGSGTDFTLTIDPVEADDTATYFCQQSWNDPWTFGGGTKLELK")
"≥ 10.82"
>>> assay_value("chBDI-9E8 (antibody, V domains shown, also called chimeric BDI-9E8-E7) VH: QVTLKESGPGILQPSQTLSLTCTFSGFSLSTYGMGVGWIRQPSGKGLEWLANIWWDDDKYYNPSLKNRLTISKDTSNNQAFLKITNVDTADTATYYCARIESIGTTYSFDYWGQGVMVTVSS VL: QFTLTQPKSVSGSLRSTITIPCERSSGDIGDSYVSWYQQHLGRPPINVIYADDQRPSEVSDRFSGSIDSSSNSASLTITNLQMDDEADYFCQSYDINIDIVFGGGTKLTVL")
"≥ 10.92"
>>> assay_value("chBDI-5H1 (antibody, human IgG1, V domains shown, also called chimeric BDI-5H1-F6) VH: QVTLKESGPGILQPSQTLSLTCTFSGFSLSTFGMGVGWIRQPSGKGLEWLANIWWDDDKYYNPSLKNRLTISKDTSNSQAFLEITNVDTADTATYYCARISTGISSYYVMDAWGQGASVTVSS VL: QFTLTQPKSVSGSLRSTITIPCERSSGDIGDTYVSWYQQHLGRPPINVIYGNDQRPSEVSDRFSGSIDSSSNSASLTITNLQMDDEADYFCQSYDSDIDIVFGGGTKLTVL")
"≥ 10.82"

With those in mind, consider the next binder.
Param item = chBFU-3E2-B9-B8 (antibody, human IgG1, V domains shown) VH: EVQLQQSGPELQRPGASVKLSCKASGYTFTESYMYWVKQRPEQSLELIGRIDPEDGSTDYVEKFKNKATLTADTSSNTAYMQLSSLTSEDSATYFCARFGARSYFYPMDAWGQGTSVTVSS VL: DTVLTQPPALAVSPGERVSISCRASESVSTLMHWYQQKPGQQPRLLIYGASNLESGVPARFSGSGSGTDFTLTIDPVEADDTATYFCQQSWNDPWTFGGGTKLELK ; retrieve measured pKd.
≥ 10.72
